CC50 overview
# protocol_text: Cytotoxicity against MDBK cells after 48 to 96 hrs by MTT assay
# Assay type: cell-based, Bos taurus
# condition_label: cattle, MDBK cells

Example cases with answers are listed next.
NC(=O)c1ncn([C@@H]2O[C@H](CO)[C@@H](O)[C@H]2O)n1 : > 100 µM
Nc1nc2c(ncn2COCCO)c(=O)[nH]1 : > 100 µM

// query Consider the compound shown here: CN(C)CCCN(/N=N/c1ccccc1)c1cccc(C(F)(F)F)c1 What is its recorded CC50?
// result 38 µM

// query Using the record for C[C@@]1(O)[C@H](O)[C@@H](CO)O[C@H]1n1cnc2c(=O)[nH]c(N)nc21 , report its CC50.
// result > 100 µM

* * *

Form field: CC50 (one value per entry).
# protocol_text: Cytotoxicity against hamster BHK21 cells assessed as reduction in cell viability after 48 to 96 hrs by MTT assay
# Assay type: cell-based, Mesocricetus auratus, BHK-21
# condition_label: bhk-21

Below, 5 compounds whose answers are already recorded.
Fc1ccc(F)c(/N=N/Nc2cccc(C(F)(F)F)c2)c1 : > 100 µM
Fc1ccc(/N=N/c2ccc(NC[C@@H]3CCCN4CCCC[C@H]34)c3c2CCCC3)c(F)c1 : 9 µM
c1ccc(CN/N=N/c2ccccc2)cc1 : > 100 µM
COc1ccc(/N=N/N2CCCC2)cc1 : ≥ 100 µM
CN(C)CCCNc1ccc(/N=N/c2c(F)cccc2F)cc1 : 43 µM

Pending compound:
// query Need CC50 of O=[N+]([O-])c1cccc(/N=N/N2CCCCC2)c1 , thanks.
// result > 100 µM

* * *

# protocol_text: Cytotoxicity against MDBK cells after 48 to 96 hrs by MTT assay
# Type: cell-based, Bos taurus
# condition_label: cattle, mdbk
measured_endpoint: CC50

Brc1ccc(/N=N/N2CCCCC2)cc1 : > 100 µM
FC(F)(F)c1cccc(N/N=N/c2ccccc2)c1 : > 100 µM
c1ccc(CN/N=N/c2ccccc2)cc1 : > 100 µM

// query Fill in the blank: the reported CC50 of Clc1ccc(/N=N/N2CCCC2)cc1Cl is ____.
// result 70 µM

// query Please report the recorded CC50 for CN(C)CCCNc1ccc(/N=N/c2ccc([N+](=O)[O-])cc2)cc1 .
// result > 100 µM

// query Field request: CC50 | item: CN(C)CCCNc1ccc(/N=N/c2cc(F)ccc2F)cc1
// result 59 µM

// query Look at this molecule and give its reported CC50. Clc1cccc(/N=N/N2CCCC2)c1
// result > 100 µM

// query Quick check: CC50 of Brc1cccc(/N=N/N2CCCC2)c1 ?
// result > 100 µM

* * *

# Test system: MT4
# protocol_text: Cytotoxicity against human MT4 cells after 96 hrs by MTT assay
# Format: cell-based
# condition_label: mt4, 96 h
measured_endpoint: CC50 (µM)
Kindly answer with a numeric value in µM, unit omitted.

Here's what some known entries look like.
FC(F)(F)c1cccc(/N=N/c2ccc(NC[C@@H]3CCCN4CCCC[C@H]34)c3c2CCCC3)c1 : 15
CN(C)CCCNc1ccc(/N=N/c2cccc([N+](=O)[O-])c2)cc1 : 14
CN(C)CCCNc1ccc(/N=N/c2ccccc2)cc1 : 17

// query Identify the measured CC50 of CN(C)CCCN(/N=N/c1ccccc1)c1ccccc1 for MT4.
// result 33
